Data provenance is paper PMC6271077.

Attribute: GIZ
# Tested on: S. aureus ATCC 29213
# PROTOCOL DESCRIPTION: Disc-diffusion (GIZ)
# Format: cell-based
# TEST PARAMETERS: 18 h, 35 °C, un: unmeasurable
READOUT KIND: GIZ (mm)

1) CC[C@H](C(=O)NCc1ccc(F)cc1)C1CC[C@H](C)C([C@@H](C)[C@H](O)[C@H](C)C(=O)[C@H](CC)C2O[C@]3(C=C[C@@H](O)C4(CC[C@@](C)(C5CC[C@](O)(CC)[C@H](C)O5)O4)O3)[C@H](C)C[C@@H]2C)O1 (stereo partly shown); 20
2) O=C(O)c1cn(C2CC2)c2cc(N3CCNCC3)c(F)cc2c1=O [ciprofloxacin, reference compound]; 22
3) CC[C@@H](C(=O)[C@@H](C)[C@@H](O)[C@H](C)[C@@H]1O[C@@H]([C@@H](CC)C(=O)O)CC[C@@H]1C)[C@H]1O[C@]2(C=C[C@@H](O)[C@]3(CC[C@@](C)([C@H]4CC[C@](O)(CC)[C@H](C)O4)O3)O2)[C@H](C)C[C@@H]1C; 28
